Where do the numbers come from? From patent EP0558245A1.

Tgt: 5HT1A receptors (Rattus norvegicus)
Construct: Rat hippocampi were homogenized; from tissue; host or cells: rat hippocampus membranes
Assay remarks: [3H]8-OH-DPAT binding (5HT1A receptors), rat hippocampus membranes
Cond: rat hippocampus crude membranes, [3H]8-OH-DPAT 1.0 nM, 25°C 30 min; read-out: Receptor Binding IC50 (nM) 5-HT1a
Structures can show the parent of a compound that is named as a salt.
Threshold 60 nM: IC50 strictly smaller gives rule met, otherwise rule not met.

Worked cases, answers included:
Molecule	Category label
COc1ccccc1N1CCN(CCCCNc2cccc3c(=O)c(C)c(-c4ccccc4)oc23)CC1 [Example 34, hydrochloride hemihydrate]	rule met
COc1ccccc1N1CCN(CCCNC(=O)c2cccc3c(=O)cc(-c4ccccc4)sc23)CC1 [Example 107]	rule met

IN: Lab log: compare recorded IC50 with 60 nM; is it strictly lower for COc1ccccc1OCCCNCCCNC(=O)c1cccc2c(=O)c(C)c(-c3ccccc3)oc12 [Example 74, methanesulphonate hemihydrate] ?
OUT: rule not met

IN: Lab log: compare recorded IC50 with 60 nM; is it strictly lower for COc1ccccc1N1CCN(CCCNC(=O)c2cccc3c(=O)c(C)c(C)oc23)CC1 [Example 102] ?
OUT: rule met

IN: Lab log: compare recorded IC50 with 60 nM; is it strictly lower for COc1ccccc1N1CCN(CCCNC(=O)c2cc(N)cc3c(=O)c(C)c(-c4ccccc4)oc23)CC1 [Example 94] ?
OUT: rule not met

IN: Lab log: compare recorded IC50 with 60 nM; is it strictly lower for COc1ccccc1N1CCN(CCOC(=O)Cc2cccc3c(=O)c(C)c(-c4ccccc4)oc23)CC1.Cl.Cl [Example 66, dihydrochloride] ?
OUT: rule met

---

Catalogue of compounds with associated LD50 at 168 h
Assay remarks: Acute toxicity in mice after intraperitoneal and oral administration
Cond: mouse, in vivo; female albino Swiss mice, oral, mortality recorded 7 days after administration; read-out: Acute Toxicity in Mice LD50 (mg/kg) p.o.
Where a name gives a salt, the structure may show the parent alone.

// worked examples, LD50 at 168 h included
Compound	LD50 at 168 h
COc1ccccc1N1CCN(CCOc2cccc3c(=O)c(C)c(-c4ccccc4)oc23)CC1.Cl.O [Example 39]	> 3000 mg/kg
COc1ccccc1N1CCN(CCNc2cccc3c(=O)c(C)c(-c4ccccc4)oc23)CC1.Cl.Cl [Example 32]	> 2000 mg/kg
CCOc1ccccc1N1CCN(CC(O)c2cccc3c(=O)c(C)c(-c4ccccc4)oc23)CC1.Cl (stereo not drawn) [Example 19]	> 3000 mg/kg
COc1ccccc1N1CCN(CCNC(=O)Nc2cccc3c(=O)c(C)c(-c4ccccc4)oc23)CC1.CS(=O)(=O)O [Example 38]	> 2000 mg/kg
COc1ccccc1N1CCN(CCNC(=O)/C=C/c2cccc3c(=O)c(C)c(-c4ccccc4)oc23)CC1 [Example 72]	> 2000 mg/kg

Continue with the next compound.
IN: Dear colleague, I am looking for the recorded LD50 at 168 h of the following compound: COc1ccccc1N1CCN(CCNC(=O)c2cccc3c(=O)c(C)c(-c4ccccc4)oc23)CC1 [Example 13, monohydrochloride hemihydrate]
OUT: > 3000 mg/kg

---

Assay remarks: Acute toxicity in mice after intraperitoneal and oral administration
Cond: mouse, in vivo, ip; female albino Swiss mice, intraperitoneal, mortality recorded 7 days after administration; read-out: Acute Toxicity in Mice LD50 (mg/kg) i.p.
Where a name gives a salt, the structure may show the parent alone.
Catalogue of compounds with associated LD50 at 168 h

// worked examples, LD50 at 168 h included
Compound	Recorded metric	Endpoint result
Cc1c(-c2ccccc2)oc2c(C(=O)NCCCN3CCN(c4ccccc4O)CC3)cccc2c1=O [Example 59]	LD50 at 168 h	> 500 mg/kg
COc1ccccc1N1CCN(CCOc2cccc3c(=O)c(C)c(-c4ccccc4)oc23)CC1.Cl.O [Example 39]	LD50 at 168 h	> 1000 mg/kg
Cc1c(-c2ccccc2)oc2c(C(=O)OCCCN3CCN(c4ccccc4)CC3)cccc2c1=O.Cl.Cl [Example 8]	LD50 at 168 h	> 500 mg/kg
COc1ccccc1N1CCN(CCNC(=O)c2cccc3c(=O)c(C)c(-c4ccccc4)oc23)CC1 [Example 13, monohydrochloride hemihydrate]	LD50 at 168 h	> 1000 mg/kg
COc1ccccc1N1CCN(CCCC(=O)c2cccc3c(=O)c(C)c(-c4ccccc4)oc23)CC1.CS(=O)(=O)O	LD50 at 168 h	> 500 mg/kg

Continue with the next compound.
IN: Dear colleague, I am looking for the recorded LD50 at 168 h of the following compound: Cc1c(-c2ccccc2)oc2c(C(=O)NCCCN3CCC(C(=O)c4ccc(F)cc4)CC3)cccc2c1=O [Example 56]
OUT: > 500 mg/kg

---

Assay remarks: Acute toxicity in mice after intraperitoneal and oral administration
Cond: mouse, in vivo; female albino Swiss mice, oral, mortality recorded 7 days after administration; read-out: Acute Toxicity in Mice LD50 (mg/kg) p.o.
Recorded metric: LD50 at 168 h

IN: Dear colleague, I am looking for the recorded LD50 at 168 h of the following molecule: COc1ccccc1N1CCN(CCC(=O)Nc2cccc3c(=O)c(C)c(-c4ccccc4)oc23)CC1.Cl [Example 37]
OUT: > 2000 mg/kg

---

Catalogue of molecules with associated IC50
Tgt: 5HT1A receptors (Rattus norvegicus, UniProt P19327)
Construct: Rat hippocampi were homogenized; from tissue; host or cells: rat hippocampus membranes
Sequence (P19327 1-422): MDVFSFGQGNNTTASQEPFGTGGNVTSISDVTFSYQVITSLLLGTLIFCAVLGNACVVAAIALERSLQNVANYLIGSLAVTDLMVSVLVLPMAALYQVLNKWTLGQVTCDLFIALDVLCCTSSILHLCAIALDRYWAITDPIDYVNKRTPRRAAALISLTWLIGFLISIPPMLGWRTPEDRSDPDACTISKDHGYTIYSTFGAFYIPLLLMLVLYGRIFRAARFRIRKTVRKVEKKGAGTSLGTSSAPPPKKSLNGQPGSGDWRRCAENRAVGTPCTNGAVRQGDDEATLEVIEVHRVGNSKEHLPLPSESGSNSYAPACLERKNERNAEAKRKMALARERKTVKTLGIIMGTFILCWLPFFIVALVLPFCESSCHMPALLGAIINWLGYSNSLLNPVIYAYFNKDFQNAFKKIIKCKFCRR
Assay remarks: [3H]8-OH-DPAT binding (5HT1A receptors), rat hippocampus membranes
Cond: rat hippocampus crude membranes, [3H]8-OH-DPAT 1.0 nM, 25°C 30 min; read-out: Receptor Binding IC50 (nM) 5-HT1a
Structures can show the parent of a compound that is named as a salt.
Numeric answer only, unit nM assumed.

Molecule	Endpoint result
COc1ccccc1N1CCN(CCCNC(=O)c2cccc3c2OCCC3=O)CC1.CS(=O)(=O)O [Example 87, methanesulphonate]	107
Cc1c(-c2ccccc2)oc2c(C(=O)NCCCN3CCC(C(=O)c4ccc(F)cc4)CC3)cccc2c1=O [Example 56]	748
COc1ccccc1N1CCN(CCCNC(=O)c2cccc3c(=O)c(C)c(C4CCCCC4)oc23)CC1 [Example 104]	15

Continue with the next molecule.
IN: Dear colleague, I am looking for the recorded IC50 of the following molecule: COc1ccccc1N1CCN(CCNC(=O)c2cccc3c(=O)c(C)c(-c4ccccc4)oc23)CC1 [Example 13, monohydrochloride hemihydrate]
OUT: 229

---

Assay remarks: Acute toxicity in mice after intraperitoneal and oral administration
Cond: mouse, in vivo; female albino Swiss mice, oral, mortality recorded 7 days after administration; read-out: Acute Toxicity in Mice LD50 (mg/kg) p.o.
Where a name gives a salt, the structure may show the parent alone.
Catalogue of compounds with associated LD50 at 168 h

IN: Dear colleague, I am looking for the recorded LD50 at 168 h of the following compound: COc1ccccc1N1CCN(CCCN(C(C)=O)c2cccc3c(=O)c(C)c(-c4ccccc4)oc23)CC1.Cl.O [Example 36]
OUT: > 2000 mg/kg

IN: Dear colleague, I am looking for the recorded LD50 at 168 h of the following compound: COc1ccccc1N1CCN(CCOCc2cccc3c(=O)c(C)c(-c4ccccc4)oc23)CC1.Cl.Cl [Example 27]
OUT: > 3000 mg/kg

IN: Dear colleague, I am looking for the recorded LD50 at 168 h of the following compound: COc1ccccc1N1CCN(CC(=O)N(C)Cc2cccc3c(=O)c(C)c(-c4ccccc4)oc23)CC1 [Example 26, hydrochloride hydrate]
OUT: > 2000 mg/kg

IN: Dear colleague, I am looking for the recorded LD50 at 168 h of the following compound: COc1ccccc1N1CCN(CCN(C)S(=O)(=O)c2cccc3c(=O)c(C)c(-c4ccccc4)oc23)CC1.Cl [Example 49]
OUT: > 2000 mg/kg

IN: Dear colleague, I am looking for the recorded LD50 at 168 h of the following compound: COc1ccccc1N1CCN(CCN(Cc2cccc3c(=O)c(C)c(-c4ccccc4)oc23)C(C)=O)CC1.Cl [Example 24]
OUT: > 3000 mg/kg

IN: Dear colleague, I am looking for the recorded LD50 at 168 h of the following compound: CCOC(CN1CCN(c2ccccc2OC)CC1)c1cccc2c(=O)c(C)c(-c3ccccc3)oc12.Cl (stereo not drawn) [Example 22]
OUT: > 2000 mg/kg

IN: Dear colleague, I am looking for the recorded LD50 at 168 h of the following compound: COc1ccccc1N1CCN(CCCNc2cccc3c(=O)c(C)c(-c4ccccc4)oc23)CC1 [Example 33]
OUT: > 2000 mg/kg

IN: Dear colleague, I am looking for the recorded LD50 at 168 h of the following compound: COc1ccccc1N1CCN(CC(O)COc2cccc3c(=O)c(C)c(-c4ccccc4)oc23)CC1.Cl (stereo not drawn) [Example 45]
OUT: 1730 mg/kg

IN: Dear colleague, I am looking for the recorded LD50 at 168 h of the following compound: COc1ccccc1N1CCN(CCCNC(=O)c2cccc3c2OCCC3=O)CC1.CS(=O)(=O)O [Example 87]
OUT: > 500 mg/kg

IN: Dear colleague, I am looking for the recorded LD50 at 168 h of the following compound: COc1ccccc1N1CCN(CCOC(=O)/C=C/c2cccc3c(=O)c(C)c(-c4ccccc4)oc23)CC1 [Example 79]
OUT: > 2000 mg/kg

IN: Dear colleague, I am looking for the recorded LD50 at 168 h of the following compound: COc1ccccc1OCCNCCCNC(=O)c1cccc2c(=O)c(C)c(-c3ccccc3)oc12.Cl [Example 14]
OUT: 559 mg/kg

IN: Dear colleague, I am looking for the recorded LD50 at 168 h of the following compound: Cc1c(-c2ccccc2)oc2c(C(=O)NCCCN3CCN(c4ccccc4)CC3)cccc2c1=O [Example 15, monohydrochloride hemihydrate]
OUT: 496 mg/kg

IN: Dear colleague, I am looking for the recorded LD50 at 168 h of the following compound: Cc1c(-c2ccccc2)oc2c(C(=O)NCCCNCC3COc4ccccc4O3)cccc2c1=O (stereo not drawn) [Example 52]
OUT: 224 mg/kg

IN: Dear colleague, I am looking for the recorded LD50 at 168 h of the following compound: Cc1c(-c2ccccc2)oc2c(C(=O)NCCCN3CCC(n4c(=O)[nH]c5ccccc54)CC3)cccc2c1=O [Example 57]
OUT: > 2000 mg/kg

IN: Dear colleague, I am looking for the recorded LD50 at 168 h of the following compound: COc1ccccc1N1CCN(CCCN(C)c2cccc3c(=O)c(C)c(-c4ccccc4)oc23)CC1 [Example 35, hydrochloride hemihydrate]
OUT: 959 mg/kg
